- TESTED_SYSTEM: recombinant human His-tagged MDM2 protein (residues 1-118) (Homo sapiens (Human))
- Sequence (Q00987 1-118): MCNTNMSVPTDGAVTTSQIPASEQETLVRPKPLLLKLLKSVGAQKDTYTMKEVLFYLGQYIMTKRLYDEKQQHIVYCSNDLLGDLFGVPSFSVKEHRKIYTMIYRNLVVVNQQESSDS
- EXPERIMENTAL_DETAILS: Fluorescence-polarization MDM2 binding assay;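 further: fluorescence polarization read after three hours of incubation in potassium phosphate buffer containing bovine gamma globulin and Triton X-100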
- CONDITION_SET: Table 19C; read-out: Bidning affinities to MDM2 as determined using FP assay IC50
pIC50: −log10 of the molar value.

{"columns": ["COMPOUND", "pIC50"],
 "data": [
  ["CC(C)(C)C[C@H]1N[C@@H](C(=O)NCC[C@H](O)CO)[C@H](c2cc(Cl)ccn2)[C@@]12C(=O)Nc1cc(Cl)c(F)cc12 [MI-319-35]", "> 5.00"],
  ["CC[C@H]1N[C@@H](C(=O)NCCN2CCOCC2)[C@H](c2cccc(Cl)c2)[C@@]12C(=O)Nc1cc(Cl)c(F)cc12 [MI-319-39]", "< 5.00"],
  ["CC(C)(C)C[C@H]1N[C@@H](C(=O)NCCN2CCN(C(=O)CO)CC2)[C@H](c2cccc(Cl)c2)[C@@]12C(=O)Nc1cc(Cl)c(F)cc12 [MI-319-33]", "> 6.00"],
  ["CC(C)(C)C[C@H]1N[C@@H](C(=O)NCC[C@H](O)COC(=O)CC(=O)O)[C@H](c2ccc(F)c(Cl)c2)[C@@]12C(=O)Nc1cc(Cl)c(F)cc12 [MI-319-26]", "> 6.00"],
  ["CNC[C@@H](O)CCNC(=O)[C@@H]1N[C@H](CC(C)(C)C)[C@]2(C(=O)Nc3cc(Cl)c(F)cc32)[C@H]1c1ccc(F)c(Cl)c1 [MI-319-30]", "> 5.30"],
  ["CN(CC[C@H](O)CO)C(=O)[C@@H]1N[C@H](CC(C)(C)C)[C@]2(C(=O)Nc3cc(Cl)c(F)cc32)[C@H]1c1cccc(Cl)c1 [MI-319-29]", "< 5.30"]
]}

---

- Test system: Isogenic HCT-116 colon cancer cell lines
- EXPERIMENTAL_DETAILS: cells
- Assay type: cell-based
- CONDITION_SET: Homo sapiens, HCT-116, read-out: Inhibition of cell growth IC50, HCT116 p53 KO, Table 19B; HCT116 p53 KO
pIC50: −log10 of the molar value.
Assign Met to entries whose pIC50 meets or exceeds 5; assign Not met to the rest.

{"columns": ["COMPOUND", "LABEL_CLASS"],
 "data": [
  ["O=C(NCC[C@H](O)CO)[C@@H]1N[C@H](CCc2ccsc2)[C@]2(C(=O)Nc3cc(Cl)c(F)cc32)[C@H]1c1cccc(Cl)c1", "Met"],
  ["O=C(NCC[C@H](O)CO)[C@@H]1N[C@H](CC2CC2)[C@]2(C(=O)Nc3cc(Cl)c(F)cc32)[C@H]1c1cccc(Cl)c1", "Met"],
  ["CC(C)(C)C[C@H]1N[C@@H](C(=O)NCCC2CCC(O)C2)[C@H](c2cccc(Cl)c2F)[C@@]12C(=O)Nc1cc(Cl)ccc12 (stereo partly drawn)", "Not met"],
  ["CCCCC(C)(C)C[C@H]1N(C)[C@@H](C(=O)NCC[C@H](O)CO)[C@H](c2cccc(Cl)c2)[C@@]12C(=O)Nc1cc(Cl)c(F)cc12", "Not met"],
  ["O=C(NCC[C@H](O)CO)[C@@H]1N[C@H](CC2CCCCC2)[C@]2(C(=O)Nc3cc(Cl)c(F)cc32)[C@H]1c1cccc(Cl)c1 [MI-716A]", "Not met"],
  ["CN1[C@@H](C(=O)NCC[C@H](O)CO)[C@H](c2cccc(Cl)c2F)[C@@]2(C(=O)Nc3cc(F)c(F)cc32)[C@H]1CC(C)(C)C", "Not met"],
  ["CC(C)CC(C)(C)C[C@H]1N[C@@H](C(=O)NCC[C@H](O)CO)[C@H](c2ccc(F)c(Cl)c2)[C@@]12C(=O)Nc1cc(F)c(F)cc12", "Met"],
  ["CC(C)(C)C[C@H]1N[C@@H](C(=O)NCCN2CCOCC2)[C@H](c2cccc(Cl)c2F)[C@@]12C(=O)Nc1cc(F)c(F)cc12", "Not met"],
  ["CCC(C)(C)C[C@H]1N(C)[C@@H](C(=O)NCC[C@H](O)CO)[C@H](c2cccc(Cl)c2F)[C@@]12C(=O)Nc1cc(F)c(F)cc12", "Not met"],
  ["CC(C)CC(C)(C)C[C@H]1N(C)[C@@H](C(=O)NCC[C@H](O)CO)[C@H](c2cccc(Cl)c2)[C@@]12C(=O)Nc1cc(F)c(F)cc12", "Not met"],
  ["O=C(NCC[C@H](O)CO)[C@@H]1N[C@H](CCc2cccs2)[C@]2(C(=O)Nc3cc(Cl)c(F)cc32)[C@H]1c1cccc(Cl)c1", "Met"],
  ["CC(C)CC[C@H]1N[C@@H](C(=O)NCC[C@H](O)CO)[C@H](c2cccc(Cl)c2)[C@@]12C(=O)Nc1cc(Cl)c(F)cc12", "Not met"]
]}

---

- EXPERIMENTAL_DETAILS: In vitro microsomal stability, rat
- Assay type: in vitro ADME
- CONDITION_SET: rat liver microsomes, NADPH, 30 min
OBSERVABLE: % of compound remaining when incubated in rat liver microsomes with NADPH (%)

{"columns": ["COMPOUND", "UNIT_OF_MEASUREMENT", "OBS_VALUE"],
 "data": [
  ["CC(C)(C)C[C@H]1N[C@@H](C(=O)NCC[C@H](O)CN2CCCC2)[C@H](c2cccc(Cl)c2)[C@@]12C(=O)Nc1cc(Cl)c(F)cc12", "%", 71.97],
  ["CC(C)(C)C[C@H]1N[C@@H](C(=O)N[C@H]2CC[C@@H](O)C2)[C@H](c2cccc(Cl)c2)[C@@]12C(=O)Nc1cc(Cl)c(F)cc12", "%", 5.81],
  ["CC(C)(C)C[C@H]1N[C@@H](C(=O)NCCC(C)(O)CO)[C@H](c2cccc(Cl)c2)[C@@]12C(=O)Nc1cc(Cl)c(F)cc12 (stereo partly drawn)", "%", 73.32]
]}

---

- Test system: Isogenic HCT-116 colon cancer cell lines;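 further: cells grown in 96-well plates in McCoy's 5A medium with 10% FBS, exposed to compound for 4 days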
- EXPERIMENTAL_DETAILS: cells
- Type: cell-based
- CONDITION_SET: Homo sapiens, HCT-116, read-out: Cell growth inhibition using WST assay, HCT116 p53KO IC50, Table 19C; HCT116 p53KO
pIC50: −log10 of the molar value.
// values below are reported pIC50
OBSERVABLE: pIC50

{"columns": ["MOLECULE", "OBS_VALUE"],
 "data": [
  ["CC(C)(C)C[C@H]1N[C@@H](C(=O)NCC[C@H](O)CO)[C@H](Cc2ccccc2)[C@@]12C(=O)Nc1cc(Cl)c(F)cc12 [MI-319-23]", "< 5.00"],
  ["CN(CC[C@H](O)CO)C(=O)[C@@H]1N[C@H](CC(C)(C)C)[C@]2(C(=O)Nc3cc(Cl)c(F)cc32)[C@H]1c1cccc(Cl)c1 [MI-319-29]", "< 5.00"],
  ["CC(C)(C)C[C@H]1N[C@@H](C(=O)NCCN2CCN(C(=O)CO)CC2)[C@H](c2cccc(Cl)c2)[C@@]12C(=O)Nc1cc(Cl)c(F)cc12 [MI-319-33]", 4.60]
]}

---

- EXPERIMENTAL_DETAILS: Pharmacokinetic studies in rats
- Type: in vivo, rat
- CONDITION_SET: rat, IV, 5 mg/kg; plasma, parent compound
// values below are reported CLz

{"columns": ["MOLECULE", "CLz"],
 "data": [
  ["CC(C)(C)C[C@H]1N[C@@H](C(=O)NC2CCC(NS(C)(=O)=O)CC2)[C@H](c2cccc(Cl)c2F)[C@@]12C(=O)Nc1cc(Cl)ccc12 (some centres unmarked) [MI-772]", "16.7 mL/min/kg"],
  ["CC(C)(C)C[C@H]1N[C@@H](C(=O)N[C@H]2CC[C@@H](O)C2)[C@H](c2cccc(Cl)c2F)[C@@]12C(=O)Nc1cc(Cl)ccc12 [MI-519-51]", "75 mL/min/kg"],
  ["CC(C)(C)C[C@H]1N[C@@H](C(=O)NC2CCC(O)CC2)[C@H](c2cccc(Cl)c2F)[C@@]12C(=O)Nc1cc(Cl)ccc12 (some centres unmarked) [MI-773]", "16.7 mL/min/kg"],
  ["CC(C)(C)C[C@H]1N[C@@H](C(=O)N[C@H]2C[C@@](C)(O)C2)[C@H](c2cccc(Cl)c2F)[C@@]12C(=O)Nc1cc(Cl)ccc12 [MI-519-64]", "30 mL/min/kg"],
  ["CC(C)(C)C[C@H]1N[C@@H](C(=O)NC2CCC(NS(C)(=O)=O)CC2)[C@H](c2cccc(Cl)c2F)[C@@]12C(=O)Nc1cc(Cl)ccc12 (some centres unmarked) [MI-771]", "36.7 mL/min/kg"]
]}

Reference source for all entries: patent US9079913B2
